As shown below, each of these binders has a reported kon value.
- Tested target: T1, AAV5
- T1 construct: also called adeno-associated virus serotype 5
- Measurement description: SPR, AAV on CM5 chip;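 further: surface plasmon resonance with AAV amine-coupled to the chip as ligand, nanobodies injected as analyte over a concentration series, rate constants and affinity fitted from binding curves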
Result type: kon

# Binder, Endpoint value
rows = [
    ("A4-032 (VHH) VHH: VQLQESGGGLVQPGGSLRLSCVASGSSFSINTMGWYRQAPGKQRELVATVTRDGSTNYANSVKGRFTISRDNAKNTVYLQMNSLRPEDTAVYYCHVDEVRQSSWTTSNLWGQGTQVTVSS", "134000 M⁻¹ s⁻¹"),
    ("A4-011 (VHH) VHH: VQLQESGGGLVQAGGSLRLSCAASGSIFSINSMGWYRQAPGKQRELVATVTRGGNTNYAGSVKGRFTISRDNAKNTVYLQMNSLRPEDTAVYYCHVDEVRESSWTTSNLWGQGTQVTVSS", "9460 M⁻¹ s⁻¹"),
]
